A collection of variants and their measured pKd
B1: scFv; the commonest letter at each place (parent)
chain 1: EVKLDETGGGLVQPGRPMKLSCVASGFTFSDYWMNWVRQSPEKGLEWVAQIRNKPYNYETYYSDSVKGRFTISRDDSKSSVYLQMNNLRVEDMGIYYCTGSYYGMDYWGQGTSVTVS
chain 2: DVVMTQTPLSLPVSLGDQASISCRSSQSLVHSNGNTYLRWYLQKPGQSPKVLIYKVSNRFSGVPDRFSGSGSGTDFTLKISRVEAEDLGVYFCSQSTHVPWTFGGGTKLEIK

variants of: B1; experiment: Kd (Tite-Seq); conditions: with fluorescein; format: scFv 4-4-20, heavy + light
pKd: −log10 of the molar value.

Some solved cases for reference:
[
  {
    "Mutation string": "chain 1 G104K G109C",
    "Measured attribute": "pKd",
    "Result": "≤ 5.00"
  },
  {
    "Mutation string": "chain 1 G104W G109R",
    "Measured attribute": "pKd",
    "Result": "≤ 5.00"
  },
  {
    "Mutation string": "chain 1 S30W D31N",
    "Measured attribute": "pKd",
    "Result": "≥ 9.50"
  }
]

Now, please, on to the next variant.
Asked: Query (variant): chain 1 W33C M34K ; field requested: pKd
Given back: ≤ 5.00
